// provenance: paper PMC9482650

Provide the recorded pKd for the entries that follow.
# targetSystem: PDZRN4_1, Q6ZMN7
# Sequence (Q6ZMN7 213-318): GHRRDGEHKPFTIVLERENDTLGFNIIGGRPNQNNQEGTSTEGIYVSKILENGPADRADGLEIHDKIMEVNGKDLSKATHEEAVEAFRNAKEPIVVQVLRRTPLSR
# assayText: holdup assay
# Design: key: below the threshold = too weak to quantify, mostly under pKd 3.1 to 4
# conditionSummary: plain residues with an end cap or a label only (N-terminal biotin on a linker: ttds)
Simply state the number, no unit and no words.

Data request: Name the reported pKd value associated with the binder PFRSRSPSEV [GPR6, P46095]
Data returned: 3.57

Data request: Entry to check: PPRQRSETQV [HPV82-E6, Q9IR59]
Data returned: 3.83

Data request: Entry to check: QRPYRRESEI [KCNJ12, Q14500]
Data returned: 4.18

Data request: Entry to check: NPDALPETLV [ARHGAP6, O43182]
Data returned: 4.11

Data request: Entry to check: KQVVPFSSSV [GDA, Q9Y2T3]
Data returned: 3.49

Data request: Entry to check: SHSSKGETAV [FZD7, O75084]
Data returned: 4.3

Data request: Entry to check: PSRDRKETSI [RALBP1, Q15311]
Data returned: 4.57

Data request: Entry to check: SRSRRRETAL [HPV33-E6, P06427]
Data returned: 5.21

Data request: Entry to check: KLVIKTETTV [RASSF6, Q6ZTQ3]
Data returned: 4.15

Data request: Entry to check: GARVSKETPL [MAPK12, P53778]
Data returned: 4.71

Data request: Entry to check: GRLLGLETNV [ARHGEF26, Q96DR7]
Data returned: 3.48

Data request: Entry to check: SGGKRKETLV [NET1, Q7Z628]
Data returned: 4.31

Data request: Entry to check: SSIDLWETAL [SLC15A5, A6NIM6]
Data returned: 5.58
